// values below are reported IC50
# SYSTEM TESTED: human TLR9 (Homo sapiens, UniProt Q9NR96)
# Construct: host or cells: HEK-Blue cells (HEK293-derived reporter line)
# Sequence (Q9NR96 26-1032): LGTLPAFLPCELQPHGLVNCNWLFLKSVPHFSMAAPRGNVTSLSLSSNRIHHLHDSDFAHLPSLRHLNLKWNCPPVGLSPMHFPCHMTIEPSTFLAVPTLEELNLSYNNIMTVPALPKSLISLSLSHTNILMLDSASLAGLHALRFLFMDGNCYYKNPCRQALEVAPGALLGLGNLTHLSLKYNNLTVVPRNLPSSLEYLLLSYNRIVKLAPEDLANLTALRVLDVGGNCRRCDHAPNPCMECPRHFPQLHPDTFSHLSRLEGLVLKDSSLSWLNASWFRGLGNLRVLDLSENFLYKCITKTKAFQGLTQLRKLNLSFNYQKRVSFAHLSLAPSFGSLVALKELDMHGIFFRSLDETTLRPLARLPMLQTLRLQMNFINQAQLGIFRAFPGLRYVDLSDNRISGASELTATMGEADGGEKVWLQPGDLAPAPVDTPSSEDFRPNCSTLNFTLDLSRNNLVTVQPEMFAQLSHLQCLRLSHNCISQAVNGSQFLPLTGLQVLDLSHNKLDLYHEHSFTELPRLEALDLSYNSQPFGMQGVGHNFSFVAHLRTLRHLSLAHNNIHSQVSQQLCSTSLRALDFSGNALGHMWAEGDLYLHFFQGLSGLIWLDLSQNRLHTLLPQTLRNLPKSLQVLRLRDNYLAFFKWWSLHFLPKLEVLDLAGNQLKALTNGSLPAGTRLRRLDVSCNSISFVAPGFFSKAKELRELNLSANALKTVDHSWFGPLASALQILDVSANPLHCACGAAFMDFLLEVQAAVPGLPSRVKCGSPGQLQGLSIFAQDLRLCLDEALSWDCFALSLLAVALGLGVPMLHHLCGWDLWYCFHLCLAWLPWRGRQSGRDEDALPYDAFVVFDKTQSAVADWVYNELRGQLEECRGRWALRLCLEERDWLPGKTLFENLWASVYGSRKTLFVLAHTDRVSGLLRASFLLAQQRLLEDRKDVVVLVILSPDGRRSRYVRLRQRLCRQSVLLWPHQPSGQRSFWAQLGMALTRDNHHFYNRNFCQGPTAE
# PROTOCOL NOTES: TLR9 inhibition reporter assay (HEK-Blue cells, secreted embryonic alkaline phosphatase reporter)
# Assay type: cell-based
# MEASUREMENT SETUP: HEK-Blue cells overexpressing human TLR9, stimulated with ODN2006 5 nM, 22 hour incubation, reporter readout
VALUE TYPE: IC50 (nM)

[[record]]
compound = "CC(C)N1CCC(N2CCC(c3cc(F)c4nc(-c5ccc(S(C)(=O)=O)cc5)n(C)c4c3)CC2)CC1"
system_tested = "human TLR9 (Homo sapiens, UniProt Q9NR96)"
measured = 95

[[record]]
compound = "Cc1cc(-c2ccc(N3CCC(N(C)C)CC3)cc2)cc2c1nc(-c1ccc(S(C)(=O)=O)cc1)n2C"
system_tested = "human TLR9 (Homo sapiens, UniProt Q9NR96)"
measured = 410

[[record]]
compound = "Cc1cc(-c2ccc(CN3C[C@@H]4CN(CC(C)C)C[C@@H]4C3)cc2)cc2c1nc(-c1ccc(S(C)(=O)=O)cc1)n2C"
system_tested = "human TLR9 (Homo sapiens, UniProt Q9NR96)"
measured = 200

[[record]]
compound = "Cc1cc(C2CCN(C3CC4CCC(C3)N4C3CCC3)CC2)cc2c1nc(-c1ccc(S(C)(=O)=O)c(F)c1)n2C (single isomer, unassigned) [Example 124]"
system_tested = "human TLR9 (Homo sapiens, UniProt Q9NR96)"
measured = 580

[[record]]
compound = "Cc1cc(-c2cc(F)cc(CN3CCC(N4CCC4)CC3)c2)cc2c1nc(-c1ccc(S(C)(=O)=O)cc1)n2C"
system_tested = "human TLR9 (Homo sapiens, UniProt Q9NR96)"
measured = 130

[[record]]
compound = "CC(C)N1CCC(N2CCC(c3cc4nc(-c5ccc(S(C)(=O)=O)cc5)n(C)c4cc3F)CC2)CC1"
system_tested = "human TLR9 (Homo sapiens, UniProt Q9NR96)"
measured = 360

[[record]]
compound = "Cc1cc(-c2ccc(OC3CCN(C(C)C)CC3)cc2)cc2c1nc(-c1ccc(S(C)(=O)=O)cc1)n2C"
system_tested = "human TLR9 (Homo sapiens, UniProt Q9NR96)"
measured = 1200

[[record]]
compound = "CCOP(=O)(OCC)c1ccc(-c2nc3c(C)cc(C4CCN(C5CCN(C6CC6)CC5)CC4)cc3n2C)cc1"
system_tested = "human TLR9 (Homo sapiens, UniProt Q9NR96)"
measured = 180

[[record]]
compound = "Cc1cc(-c2ccc(CN3CC4(CN(C)C4)C3)cc2)cc2c1nc(-c1ccc(S(C)(=O)=O)cc1)n2C"
system_tested = "human TLR9 (Homo sapiens, UniProt Q9NR96)"
measured = 56

[[record]]
compound = "COc1ccc(-c2nc3ccc(C4CCN(C5CCN(CC(C)C)CC5)CC4)cc3n2C(C)C)cc1OC"
system_tested = "human TLR9 (Homo sapiens, UniProt Q9NR96)"
measured = 250

[[record]]
compound = "CC(C)CN1CC2(CN(Cc3ccc(-c4cc(F)c5nc(-c6ccc(S(C)(=O)=O)cc6)n(C6CC6)c5c4)cc3)C2)C1"
system_tested = "human TLR9 (Homo sapiens, UniProt Q9NR96)"
measured = 0.85

[[record]]
compound = "COc1ccc(-c2nc3c(C)cc(C4CCN(C5CC6CCC(C5)N6CC(C)C)CC4)cc3[nH]2)cc1OC (single isomer, unassigned) [Example 20]"
system_tested = "human TLR9 (Homo sapiens, UniProt Q9NR96)"
measured = 69

[[record]]
compound = "Cc1cc(C2CCN(C3CCN(CC(C)C)CC3)CC2)cc2[nH]c(-c3ccc(S(C)(=O)=O)cc3)nc12 [Example 58, tris(2,2,2-trifluoroacetate)]"
system_tested = "human TLR9 (Homo sapiens, UniProt Q9NR96)"
measured = 47

[[record]]
compound = "Cc1cc(C2CCN(C3CCN(CC(C)C)CC3)CC2)cc2[nH]c(-c3cccc4cccnc34)nc12"
system_tested = "human TLR9 (Homo sapiens, UniProt Q9NR96)"
measured = 32

